These entries and their values trace back to the kinase profiling compilation of Christmann-Franck et al. (2016).

Catalogue of compounds with associated residual activity
molecular target: GSK3B (human); assay: radiometric filter-binding kinase assay, Kinase HotSpot; conditions: compound 0.5 µM; ATP 10 µM
Endpoint Label: residual activity (%)

O=C1Cc2c([nH]c3ccc([N+](=O)[O-])cc23)-c2ccccc2N1: 2.68
Oc1ccc(-c2nc(-c3ccc(F)cc3)c(-c3ccncc3)[nH]2)cc1: 76.6
CSc1nc(-c2ccc(F)cc2)c(-c2ccnc(NC(C)c3ccccc3)c2)[nH]1 (stereo not given): 97.9
CC(C)[C@H](CO)Nc1nc(Nc2cccc(Cl)c2)c2ncn(C(C)C)c2n1: 103
CS(=O)c1ccc(-c2nc(-c3ccc(F)cc3)c(-c3ccncc3)[nH]2)cc1 (stereo not given): 80.2

---

biological target: PIM3 (human) (UniProt Q86V86); experiment: radiometric filter-binding kinase assay, Kinase HotSpot; details: compound 0.5 µM; ATP 10 µM
Endpoint Label: residual activity (%)

Nc1n[nH]c2nnc(-c3c(-c4ccccc4)nn4ccccc34)cc12: 100
CC(C)n1cnc2c(Nc3cccc(Cl)c3)nc(NCCO)nc21: 90.4
C#Cc1cccc(Nc2ncnc3cc(OCCOC)c(OCCOC)cc23)c1: 81.4
CSc1nc(-c2ccc(F)cc2)c(-c2ccnc(NC(C)c3ccccc3)c2)[nH]1 (centres undefined): 95.5

---

target: DAPK3 (human) (UniProt O43293); assay: radiometric filter-binding kinase assay, Kinase HotSpot; conditions: compound 0.5 µM; ATP 10 µM
Sequence (O43293 whole entry, looked up): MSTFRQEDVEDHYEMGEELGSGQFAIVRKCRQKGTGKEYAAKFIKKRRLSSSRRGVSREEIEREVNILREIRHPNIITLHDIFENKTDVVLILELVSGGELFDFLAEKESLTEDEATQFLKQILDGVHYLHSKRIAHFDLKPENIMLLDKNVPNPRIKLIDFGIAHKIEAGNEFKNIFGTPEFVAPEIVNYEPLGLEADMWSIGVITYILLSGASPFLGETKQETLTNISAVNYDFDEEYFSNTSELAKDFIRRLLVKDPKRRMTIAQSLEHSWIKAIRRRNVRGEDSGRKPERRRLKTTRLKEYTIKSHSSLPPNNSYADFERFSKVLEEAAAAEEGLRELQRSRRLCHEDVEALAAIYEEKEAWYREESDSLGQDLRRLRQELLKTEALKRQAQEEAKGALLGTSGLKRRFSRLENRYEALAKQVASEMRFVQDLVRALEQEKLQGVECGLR
Endpoint Label: residual activity (%)

COc1cc2nccc(Oc3ccc(NC(=S)NC(=O)c4ccccc4C)cc3)c2cc1OC: 75.4
O=C(NC(NC(=S)Nc1ccc(F)c([N+](=O)[O-])c1)C(Cl)(Cl)Cl)C(c1ccccc1)c1ccccc1 (stereo not given): 103
CS(=O)c1ccc(-c2nc(-c3ccc(F)cc3)c(-c3ccncc3)[nH]2)cc1 (stereo not given): 95.5
O=C(Nc1ccc(Cl)cc1)c1ccccc1NCc1ccncc1: 94
C#Cc1cccc(Nc2ncnc3cc(OCCOC)c(OCCOC)cc23)c1: 95.4
Nc1n[nH]c2nnc(-c3c(-c4ccccc4)nn4ccccc34)cc12: 102
CCN1/C(=C/C(C)=O)Sc2ccc(OC)cc21: 98.7
Oc1ccc(-c2nc(-c3ccc(F)cc3)c(-c3ccncc3)[nH]2)cc1: 100
CC(C)n1cnc2c(Nc3cccc(Cl)c3)nc(NCCO)nc21: 102
CSc1nc(-c2ccc(F)cc2)c(-c2ccnc(NC(C)c3ccccc3)c2)[nH]1 (stereo not given): 94.3

---

target: UniProtKB Q9HBY8; test: radiometric filter-binding kinase assay, Kinase HotSpot; details: compound 0.5 µM; ATP 10 µM
Sequence (Q9HBY8 whole entry, looked up): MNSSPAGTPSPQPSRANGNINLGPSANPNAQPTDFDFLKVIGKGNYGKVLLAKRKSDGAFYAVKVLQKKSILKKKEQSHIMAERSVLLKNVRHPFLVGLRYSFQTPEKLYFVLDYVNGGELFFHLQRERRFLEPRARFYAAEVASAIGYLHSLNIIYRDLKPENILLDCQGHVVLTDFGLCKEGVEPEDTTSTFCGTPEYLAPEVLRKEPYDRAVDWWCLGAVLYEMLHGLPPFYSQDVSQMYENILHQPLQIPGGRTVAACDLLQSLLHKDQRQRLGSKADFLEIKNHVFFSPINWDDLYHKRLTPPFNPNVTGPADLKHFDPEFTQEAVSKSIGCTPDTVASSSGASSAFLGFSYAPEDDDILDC
# residual activity annotations
Endpoint Label: residual activity

O=c1cc(N2CCNCC2)oc2c(-c3ccccc3)cccc12: 102%
CCCNC(=O)Nc1ccc(Oc2ncnc3cc(OC)c(OC)cc23)cc1Cl: 97.1%
CSc1nc(-c2ccc(F)cc2)c(-c2ccnc(NC(C)c3ccccc3)c2)[nH]1 (stereo not given): 96.1%
C#Cc1cccc(Nc2ncnc3cc(OCCOC)c(OCCOC)cc23)c1: 107%
O=C1Nc2ccccc2/C1=C\c1c(Cl)[nH]c2ccccc12: 103%
Nc1nc(Nc2ccc(S(N)(=O)=O)cc2)nn1C(=O)c1c(F)cccc1F: 106%
O=C1Nc2cc(Br)ccc2/C1=C1/Nc2ccccc2/C1=N\O: 73%
CC(C)n1cnc2c(Nc3cccc(Cl)c3)nc(NCCO)nc21: 97.4%
CC(C)(C)c1nc2c3ccc(F)cc3c3c(=O)[nH]ccc3c2[nH]1: 84.4%
Nc1n[nH]c2nnc(-c3c(-c4ccccc4)nn4ccccc34)cc12: 98.8%
Oc1ccc(-c2nc(-c3ccc(F)cc3)c(-c3ccncc3)[nH]2)cc1: 99.6%
Cc1ccc(NC(=O)c2ccc(CN3CCN(C)CC3)cc2)cc1Nc1nc(-c2cccnc2)cs1: 106%
Cc1cc2ncc(-c3ccccc3)nc2cc1C: 101%
O=c1cc(-c2cccc3c2Sc2ccccc2S3)oc(N2CCOCC2)c1: 115%
COc1ccc(-c2cnc3c(-c4ccsc4)cnn3c2)cc1: 96.7%
O=C1Cc2c([nH]c3ccc([N+](=O)[O-])cc23)-c2ccccc2N1: 111%
Clc1ccc(Nc2nnc(Cc3ccncc3)c3ccccc23)cc1: 104%
Nc1nc(Nc2ccc(S(N)(=O)=O)cc2)nn1C(=S)Nc1c(F)cccc1F: 42%
CS(=O)c1ccc(-c2nc(-c3ccc(F)cc3)c(-c3ccncc3)[nH]2)cc1 (stereo not given): 106%
O=C(NC(NC(=S)Nc1ccc(F)c([N+](=O)[O-])c1)C(Cl)(Cl)Cl)C(c1ccccc1)c1ccccc1 (stereo not given): 119%

---

target: EPHA1 (human) (UniProt P21709); assay: radiometric filter-binding kinase assay, Kinase HotSpot; settings: compound 0.5 µM; ATP 10 µM
Sequence (P21709 whole entry, looked up): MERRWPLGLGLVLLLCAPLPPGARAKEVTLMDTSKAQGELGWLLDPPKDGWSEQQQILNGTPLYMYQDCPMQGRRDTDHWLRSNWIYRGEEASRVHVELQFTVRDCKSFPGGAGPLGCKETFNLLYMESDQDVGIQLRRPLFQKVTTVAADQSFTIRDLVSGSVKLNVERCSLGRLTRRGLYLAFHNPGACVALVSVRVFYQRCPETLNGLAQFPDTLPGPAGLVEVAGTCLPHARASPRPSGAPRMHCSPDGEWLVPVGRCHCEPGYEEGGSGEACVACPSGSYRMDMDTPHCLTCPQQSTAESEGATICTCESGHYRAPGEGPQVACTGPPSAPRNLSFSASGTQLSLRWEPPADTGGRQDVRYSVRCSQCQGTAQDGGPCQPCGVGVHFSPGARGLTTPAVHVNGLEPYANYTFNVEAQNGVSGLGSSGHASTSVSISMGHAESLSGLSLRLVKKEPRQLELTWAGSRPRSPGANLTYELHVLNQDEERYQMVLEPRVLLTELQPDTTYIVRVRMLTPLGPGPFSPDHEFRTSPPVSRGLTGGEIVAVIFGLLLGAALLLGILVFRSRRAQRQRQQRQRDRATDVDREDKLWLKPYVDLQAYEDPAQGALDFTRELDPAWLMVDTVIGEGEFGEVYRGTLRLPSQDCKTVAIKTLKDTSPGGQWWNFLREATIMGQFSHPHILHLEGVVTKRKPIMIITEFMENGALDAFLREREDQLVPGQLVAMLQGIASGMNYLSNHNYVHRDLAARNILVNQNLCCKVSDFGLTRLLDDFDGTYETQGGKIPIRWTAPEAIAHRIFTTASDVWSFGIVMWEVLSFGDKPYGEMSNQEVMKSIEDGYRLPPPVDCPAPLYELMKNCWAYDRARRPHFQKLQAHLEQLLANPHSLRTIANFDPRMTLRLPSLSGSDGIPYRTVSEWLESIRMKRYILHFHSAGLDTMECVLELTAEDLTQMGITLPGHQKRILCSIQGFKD
Items are presented alongside their recorded residual activity.
Endpoint Label: residual activity (%)

COc1cc2ncnc(Nc3ccc(F)c(Cl)c3)c2cc1OCCCN1CCOCC1: 87.4
Nc1n[nH]c2nnc(-c3c(-c4ccccc4)nn4ccccc34)cc12: 92.6
Nc1nc(Nc2ccc(S(N)(=O)=O)cc2)nn1C(=O)c1c(F)cccc1F: 73.7
O=c1cc(-c2cccc3c2Sc2ccccc2S3)oc(N2CCOCC2)c1: 84.7
Nc1nc(Nc2ccc(S(N)(=O)=O)cc2)nn1C(=S)Nc1c(F)cccc1F: 37.4
O=C(Nc1ccc(Cl)cc1)c1ccccc1NCc1ccncc1: 97
COc1cc2nccc(Oc3ccc(NC(=S)NC(=O)c4ccccc4C)cc3)c2cc1OC: 83
O=C1Cc2c([nH]c3ccc([N+](=O)[O-])cc23)-c2ccccc2N1: 94.8
COc1ccc(-c2cnc3c(-c4ccsc4)cnn3c2)cc1: 91.5
C#Cc1cccc(Nc2ncnc3cc(OCCOC)c(OCCOC)cc23)c1: 94.5
Oc1ccc(-c2nc(-c3ccc(F)cc3)c(-c3ccncc3)[nH]2)cc1: 94.4
Cc1cc2ncc(-c3ccccc3)nc2cc1C: 99.9
O=C1Nc2ccccc2/C1=C\c1c(Cl)[nH]c2ccccc12: 98.5
O=c1cc(N2CCNCC2)oc2c(-c3ccccc3)cccc12: 112
CCCNC(=O)Nc1ccc(Oc2ncnc3cc(OC)c(OC)cc23)cc1Cl: 96.9
CC(C)[C@H](CO)Nc1nc(Nc2cccc(Cl)c2)c2ncn(C(C)C)c2n1: 98.3
CS(=O)c1ccc(-c2nc(-c3ccc(F)cc3)c(-c3ccncc3)[nH]2)cc1 (stereo unspecified): 97
Clc1ccc(Nc2nnc(Cc3ccncc3)c3ccccc23)cc1: 96
Cc1ccc(NC(=O)c2ccc(CN3CCN(C)CC3)cc2)cc1Nc1nc(-c2cccnc2)cs1: 96.5
NC(=O)c1ccc(N(C(N)=O)c2c(F)cccc2F)nc1-c1ccc(F)cc1F: 99.1
CC(C)n1cnc2c(Nc3cccc(Cl)c3)nc(NCCO)nc21: 94.1

---

molecular target: NEK7 (human) (UniProt Q8TDX7); experiment: radiometric filter-binding kinase assay, Kinase HotSpot; conditions: compound 0.5 µM; ATP 10 µM
Sequence (Q8TDX7 whole entry, looked up): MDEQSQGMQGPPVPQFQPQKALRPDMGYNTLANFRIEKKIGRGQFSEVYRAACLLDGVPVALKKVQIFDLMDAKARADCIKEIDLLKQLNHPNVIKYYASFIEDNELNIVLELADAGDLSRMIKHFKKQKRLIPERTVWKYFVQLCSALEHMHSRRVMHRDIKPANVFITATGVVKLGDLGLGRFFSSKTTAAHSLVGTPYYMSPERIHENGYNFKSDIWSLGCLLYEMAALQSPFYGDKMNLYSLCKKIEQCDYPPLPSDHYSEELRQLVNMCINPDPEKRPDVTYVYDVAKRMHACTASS
We begin with a simple list: items and their reported residual activity.
Endpoint Label: residual activity (%)

C#Cc1cccc(Nc2ncnc3cc(OCCOC)c(OCCOC)cc23)c1: 97.4
CC(C)(C)c1nc2c3ccc(F)cc3c3c(=O)[nH]ccc3c2[nH]1: 76.5
CC(C)[C@H](CO)Nc1nc(Nc2cccc(Cl)c2)c2ncn(C(C)C)c2n1: 101
Nc1n[nH]c2nnc(-c3c(-c4ccccc4)nn4ccccc34)cc12: 95.3

---

molecular target: RPS6KA6 KD1 KD2 (human); test: radiometric filter-binding kinase assay, Kinase HotSpot; settings: compound 0.5 µM; ATP 10 µM
Endpoint Label: residual activity (%)

NC(=O)c1ccc(N(C(N)=O)c2c(F)cccc2F)nc1-c1ccc(F)cc1F: 101
O=C(NC(NC(=S)Nc1ccc(F)c([N+](=O)[O-])c1)C(Cl)(Cl)Cl)C(c1ccccc1)c1ccccc1 (centres undefined): 94.7
Clc1ccc(Nc2nnc(Cc3ccncc3)c3ccccc23)cc1: 99.7
Cc1ccc(NC(=O)c2ccc(CN3CCN(C)CC3)cc2)cc1Nc1nc(-c2cccnc2)cs1: 103

---

target: DYRK2 (human) (UniProt Q92630); assay: radiometric filter-binding kinase assay, Kinase HotSpot; conditions: compound 0.5 µM; ATP 10 µM
Sequence (Q92630 whole entry, looked up): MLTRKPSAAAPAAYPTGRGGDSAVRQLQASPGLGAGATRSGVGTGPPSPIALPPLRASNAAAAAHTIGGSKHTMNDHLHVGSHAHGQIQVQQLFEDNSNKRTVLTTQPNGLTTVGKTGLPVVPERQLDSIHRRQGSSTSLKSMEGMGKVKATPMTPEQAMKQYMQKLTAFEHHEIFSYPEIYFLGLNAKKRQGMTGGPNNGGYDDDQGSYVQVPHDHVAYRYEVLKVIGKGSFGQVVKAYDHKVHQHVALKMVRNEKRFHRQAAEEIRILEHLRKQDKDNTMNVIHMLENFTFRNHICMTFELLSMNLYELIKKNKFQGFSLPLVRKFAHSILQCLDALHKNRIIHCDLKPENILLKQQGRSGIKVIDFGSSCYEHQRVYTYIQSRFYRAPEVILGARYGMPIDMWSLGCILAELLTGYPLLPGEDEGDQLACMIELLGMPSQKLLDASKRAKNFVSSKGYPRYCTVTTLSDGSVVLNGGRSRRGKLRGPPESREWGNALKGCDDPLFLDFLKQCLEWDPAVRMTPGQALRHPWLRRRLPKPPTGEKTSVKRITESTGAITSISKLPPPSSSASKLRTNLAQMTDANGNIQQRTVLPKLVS
Endpoint Label: residual activity

O=C(Nc1ccc(Cl)cc1)c1ccccc1NCc1ccncc1: 96%
O=C1Nc2ccccc2/C1=C\c1c(Cl)[nH]c2ccccc12: 103%
CS(=O)c1ccc(-c2nc(-c3ccc(F)cc3)c(-c3ccncc3)[nH]2)cc1 (stereo unspecified): 98.7%
Nc1nc(Nc2ccc(S(N)(=O)=O)cc2)nn1C(=S)Nc1c(F)cccc1F: 60.4%
O=c1cc(-c2cccc3c2Sc2ccccc2S3)oc(N2CCOCC2)c1: 104%
COc1cc2ncnc(Nc3ccc(F)c(Cl)c3)c2cc1OCCCN1CCOCC1: 98.2%

---

target: MAPK9 (human) (UniProt P45984); assay: radiometric filter-binding kinase assay, Kinase HotSpot; conditions: compound 0.5 µM; ATP 10 µM
Sequence (P45984 whole entry, looked up): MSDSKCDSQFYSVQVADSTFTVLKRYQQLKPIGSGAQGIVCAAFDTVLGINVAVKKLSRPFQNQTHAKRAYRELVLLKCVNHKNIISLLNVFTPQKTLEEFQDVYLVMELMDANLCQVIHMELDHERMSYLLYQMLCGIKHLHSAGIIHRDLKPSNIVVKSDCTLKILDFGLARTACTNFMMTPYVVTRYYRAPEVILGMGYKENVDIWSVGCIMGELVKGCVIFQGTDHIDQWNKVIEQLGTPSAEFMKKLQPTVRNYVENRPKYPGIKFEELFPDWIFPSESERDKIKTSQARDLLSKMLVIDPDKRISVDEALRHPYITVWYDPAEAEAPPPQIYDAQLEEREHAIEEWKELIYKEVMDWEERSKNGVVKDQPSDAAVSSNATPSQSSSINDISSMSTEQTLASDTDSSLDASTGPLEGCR
# Lookup of reported residual activity keyed by entry
Endpoint Label: residual activity (%)

CC(C)n1cnc2c(Nc3cccc(Cl)c3)nc(NCCO)nc21: 101
NC(=O)c1ccc(N(C(N)=O)c2c(F)cccc2F)nc1-c1ccc(F)cc1F: 93.5
Cc1cc2ncc(-c3ccccc3)nc2cc1C: 104
Clc1ccc(Nc2nnc(Cc3ccncc3)c3ccccc23)cc1: 97.5
O=c1cc(N2CCNCC2)oc2c(-c3ccccc3)cccc12: 90.4
Nc1n[nH]c2nnc(-c3c(-c4ccccc4)nn4ccccc34)cc12: 48.4
O=C1Nc2ccccc2/C1=C\c1c(Cl)[nH]c2ccccc12: 101
O=C1Cc2c([nH]c3ccc([N+](=O)[O-])cc23)-c2ccccc2N1: 97.2
Cc1ccc(NC(=O)c2ccc(CN3CCN(C)CC3)cc2)cc1Nc1nc(-c2cccnc2)cs1: 110
COc1cc2nccc(Oc3ccc(NC(=S)NC(=O)c4ccccc4C)cc3)c2cc1OC: 82.7
CC(C)[C@H](CO)Nc1nc(Nc2cccc(Cl)c2)c2ncn(C(C)C)c2n1: 102
